biological target: hT1R1/hT1R3 umami receptor (Homo sapiens, UniProt Q7RTX0+Q7RTX1); construct: expressed in transfected cells; host or cells: HEK293 derivative stably expressing Gα15, clone I-17, expression induced with mifepristone; test: In vitro hT1R1/hT1R3 umami taste receptor activation assay (FLIPR, dose response); format: cell-based; conditions: Table C, Umami Ureas; read-out: Umami EC50
Sequence (Q7RTX1 21-841): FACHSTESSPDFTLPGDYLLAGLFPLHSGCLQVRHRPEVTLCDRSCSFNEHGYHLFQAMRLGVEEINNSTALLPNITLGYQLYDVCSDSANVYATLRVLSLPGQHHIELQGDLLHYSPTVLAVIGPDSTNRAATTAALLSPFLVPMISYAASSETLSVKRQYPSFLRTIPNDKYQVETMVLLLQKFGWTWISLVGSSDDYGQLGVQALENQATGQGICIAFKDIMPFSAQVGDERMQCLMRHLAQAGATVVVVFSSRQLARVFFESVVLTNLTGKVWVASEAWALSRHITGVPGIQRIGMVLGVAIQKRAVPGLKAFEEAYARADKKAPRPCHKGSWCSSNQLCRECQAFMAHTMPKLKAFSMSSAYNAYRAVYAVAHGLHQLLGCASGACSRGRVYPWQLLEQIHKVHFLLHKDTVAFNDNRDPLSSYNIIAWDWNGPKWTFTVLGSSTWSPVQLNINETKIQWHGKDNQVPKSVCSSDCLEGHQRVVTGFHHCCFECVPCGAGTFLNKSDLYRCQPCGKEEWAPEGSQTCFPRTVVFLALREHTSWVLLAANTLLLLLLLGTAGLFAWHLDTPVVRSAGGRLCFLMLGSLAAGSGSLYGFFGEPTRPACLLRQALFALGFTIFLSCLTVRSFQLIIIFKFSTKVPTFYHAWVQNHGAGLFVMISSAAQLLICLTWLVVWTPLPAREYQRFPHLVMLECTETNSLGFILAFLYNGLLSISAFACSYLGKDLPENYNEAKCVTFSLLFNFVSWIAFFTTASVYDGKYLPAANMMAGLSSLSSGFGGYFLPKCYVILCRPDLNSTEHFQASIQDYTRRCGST
Sequence (Q7RTX0 21-852): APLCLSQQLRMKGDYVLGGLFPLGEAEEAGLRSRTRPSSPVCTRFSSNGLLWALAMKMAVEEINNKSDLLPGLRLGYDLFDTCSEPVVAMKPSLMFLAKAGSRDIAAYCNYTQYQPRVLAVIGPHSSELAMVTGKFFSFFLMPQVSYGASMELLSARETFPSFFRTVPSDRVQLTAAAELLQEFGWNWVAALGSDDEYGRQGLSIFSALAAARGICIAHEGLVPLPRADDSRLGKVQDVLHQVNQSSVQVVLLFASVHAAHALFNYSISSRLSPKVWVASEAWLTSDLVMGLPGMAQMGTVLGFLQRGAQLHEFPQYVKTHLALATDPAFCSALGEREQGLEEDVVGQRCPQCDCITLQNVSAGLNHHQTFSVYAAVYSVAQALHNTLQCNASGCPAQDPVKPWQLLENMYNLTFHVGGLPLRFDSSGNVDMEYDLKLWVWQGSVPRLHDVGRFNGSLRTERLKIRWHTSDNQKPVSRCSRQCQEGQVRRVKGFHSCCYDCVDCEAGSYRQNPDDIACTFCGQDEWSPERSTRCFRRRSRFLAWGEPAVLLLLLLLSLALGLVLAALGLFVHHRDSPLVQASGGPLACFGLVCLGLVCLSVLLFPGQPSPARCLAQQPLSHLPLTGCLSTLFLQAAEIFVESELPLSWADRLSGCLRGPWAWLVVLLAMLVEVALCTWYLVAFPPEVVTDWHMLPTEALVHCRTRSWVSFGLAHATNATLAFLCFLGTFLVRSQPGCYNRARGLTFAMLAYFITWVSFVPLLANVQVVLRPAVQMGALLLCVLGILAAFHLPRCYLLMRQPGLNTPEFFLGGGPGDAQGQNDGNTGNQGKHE
Metric: EC50 (µM)

{"columns": ["Compound", "Unit Info", "EC50"],
 "data": [
  ["CSc1ccccc1NC(=O)NC(C(C)C)C(C)C", "µM", 0.14]
]}

[P] CCCC(CCC)NC(=O)Nc1ccc(OC)cc1Cl
[Q] CC(C)c1ccc(NC(=O)NCCc2ccccn2)cc1
Q: For the two items P and Q , which reports the higher EC50 value? Your answer should be the label attached to the chosen record.
A: Q
(Q: 0.98 µM, P: 0.11 µM)

[a] CCC(CC)NC(=O)Nc1ccc(OC)cc1OC
[b] CCCC(NC(=O)Nc1ccc2c(c1)OCO2)C(C)C (stereo not shown)
[c] CCCC(CCC)NC(=O)Nc1ccccc1Cl
Q: Arrange the 3 compounds by rising EC50, starting with the smallest. Quick reminder: the answer is the labels in the order asked.
A: c, b, a
(c: 0.37 µM, b: 0.57 µM, a: 1.72 µM)

[a] CCC(CC(C)C)NC(=O)Nc1ccc2c(c1)OCO2 (stereo not shown)
[b] CCCC(CCC)NC(=O)Nc1ccc(C)cc1C
[c] CCCC(CCC)NC(=O)Nc1ccccc1SC
Q: Place the items in sequence of falling EC50. The reply should contain the labels ordered as requested.
A: b, a, c
